Target: hPAD4 (Homo sapiens, UniProt Q9UM07)
Sequence (Q9UM07 whole entry): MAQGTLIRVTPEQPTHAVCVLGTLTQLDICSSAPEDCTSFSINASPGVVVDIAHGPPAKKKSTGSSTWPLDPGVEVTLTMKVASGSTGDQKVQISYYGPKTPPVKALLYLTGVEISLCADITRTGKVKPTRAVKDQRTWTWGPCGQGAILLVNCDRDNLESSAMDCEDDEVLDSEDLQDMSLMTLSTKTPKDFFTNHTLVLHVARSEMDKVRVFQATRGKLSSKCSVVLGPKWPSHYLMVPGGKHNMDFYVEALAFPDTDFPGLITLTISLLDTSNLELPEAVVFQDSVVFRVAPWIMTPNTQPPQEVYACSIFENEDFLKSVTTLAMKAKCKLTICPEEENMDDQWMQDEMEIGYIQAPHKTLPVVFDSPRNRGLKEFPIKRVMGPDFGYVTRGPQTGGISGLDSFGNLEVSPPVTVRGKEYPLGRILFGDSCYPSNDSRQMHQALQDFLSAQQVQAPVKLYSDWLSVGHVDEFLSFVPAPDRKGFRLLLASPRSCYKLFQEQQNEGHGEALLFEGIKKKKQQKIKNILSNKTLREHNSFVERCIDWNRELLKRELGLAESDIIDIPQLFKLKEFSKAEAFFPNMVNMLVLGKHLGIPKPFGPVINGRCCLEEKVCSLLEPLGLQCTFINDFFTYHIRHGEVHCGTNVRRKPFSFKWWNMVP
Assay: hPAD4 RFMS (RapidFire mass spectrometry) PAD4 inhibition assay
Assay type: biochemical
Details: hPAD4 enzyme, RFMS readout; read-out: hPAD4 RFMS IC50
pIC50: −log10 of the molar value. Counter-ions that a name gives are not always drawn.
Assign pIC50 to each entry below.

Prompt line: Request the reported pIC50 associated with Cn1c(-c2cc3cccnc3n2CC2CC2)nc2cc(C(=O)N3CCCC4NCCC43)ccc21 (centres unmarked)
Response line: < 5.00

Prompt line: Request the reported pIC50 associated with CCn1c(-c2nc3cc(C(=O)N4C[C@H]5CC[C@@H]4[C@@H]5N)cc(OC)c3n2C)cc2ccc(C)nc21
Response line: > 6.00

Prompt line: Request the reported pIC50 associated with COc1cc2c(cc1C(=O)N1CCC[C@@H](N)C1)nc(-c1cc3cccnc3n1CC1CC1)n2C [Compound I-68, hydrochloride]
Response line: 5.00 to 5.30

Prompt line: Request the reported pIC50 associated with CO[C@]1(C)C[C@H](Cn2c(-c3cc4cccnc4n3CC3CC3)nc3cc(C(=O)N4C[C@H]5CC[C@@H]4[C@@H]5N)cc(F)c32)C1
Response line: > 6.00

Prompt line: Request the reported pIC50 associated with Cn1c(-c2cc3cccnc3n2CC2CC2)nc2cc(C(=O)N3CCC[C@@H]4CNC[C@@H]43)ccc21
Response line: < 5.00

Prompt line: Request the reported pIC50 associated with CO[C@@H]1CCN(C(=O)c2ccc3c(c2)nc(-c2cc4cccnc4n2CC2CC2)n3C)C[C@@H]1N (single isomer, unassigned)
Response line: 5.30 to 6.00

Prompt line: Request the reported pIC50 associated with COCCn1c(-c2nc3cc(C(=O)N4CCC[C@@H](N)C4)cc(OC)c3n2C)cc2cccnc21
Response line: 5.30 to 6.00

Prompt line: Request the reported pIC50 associated with COc1cc(C(=O)N2CCC3CCNC3C2)cc2nc(-c3cc4cncnc4n3CC3CC3)n(C)c12 (centres unmarked)
Response line: 5.00 to 5.30

Prompt line: Request the reported pIC50 associated with COc1cc(C(=O)N2CC3CCC2[C@H]3N)cc2nc(-c3cc4cccnc4n3CC3CC3)n(C)c12 (some centres unmarked)
Response line: > 6.00

Prompt line: Request the reported pIC50 associated with COc1cc(C(=O)N2C[C@H](N)C[C@@H](F)C2)cc2nc(-c3cc4cccnc4n3CC3CC3)n(C[C@H]3C[C@@](C)(OC)C3)c12
Response line: > 6.00

Prompt line: Request the reported pIC50 associated with COCCn1c(-c2nc3cc(C(=O)N4C[C@H]5CC[C@@H]4[C@@H]5N)cc(OC)c3n2C)cc2cccnc21
Response line: > 6.00

Prompt line: Request the reported pIC50 associated with COc1cc(C(=O)N2CCC(F)C(N)C2)cc2nc(-c3cc4cccnc4n3CC3CC3)n(C)c12 (racemic) [Compound I-75]
Response line: 5.30 to 6.00

Prompt line: Request the reported pIC50 associated with COc1cc(C(=O)N2CC[C@H]3CCN[C@H]3C2)cc2nc(-c3cc4cccnc4n3CC3CC3)n(C)c12
Response line: < 5.00

Prompt line: Request the reported pIC50 associated with COc1cc(C(=O)N2C[C@H]3CC[C@@H]2[C@@H]3N)cc2nc(-c3cc4ccc(C)nc4n3CC3CC3)n(C)c12
Response line: > 6.00

====

Target: UniProtKB Q9UM07
Assay: hPAD4 RFMS (RapidFire mass spectrometry) PAD4 inhibition assay
Type: biochemical
Details: hPAD4 enzyme, RFMS readout; read-out: hPAD4 RFMS IC50
Counter-ions that a name gives are not always drawn.
Assign IC50 to each entry below.

Prompt line: Request the reported IC50 associated with COc1cc(C(=O)N2C[C@H]3CC[C@@H]2[C@@H]3N)cc2nc(-c3cc4cccnc4n3CC3CC3)n(CC(F)F)c12 [Compound I-233]
Response line: < 1 µM

Prompt line: Request the reported IC50 associated with Cn1c(-c2cc3cccnc3n2CC2CC2)nc2cc(C(=O)N3CCC[C@@H](N)C3)cc(C(N)=O)c21 [Compound I-112, hydrochloride]
Response line: 5 to 10 µM

Prompt line: Request the reported IC50 associated with Cn1c(-c2cc3cccnc3n2CC2CC2)nc2cc(C(=O)N3C[C@H]4CC[C@@H]3[C@@H]4N)cc(F)c21
Response line: < 1 µM

Prompt line: Request the reported IC50 associated with Cn1c(-c2cc3cccnc3n2CC2CC2)nc2cc(C(=O)N3CCC[C@H]4CNC[C@H]43)ccc21
Response line: > 10 µM

Prompt line: Request the reported IC50 associated with COc1cc(C(=O)N2CC[C@H](OC)[C@H](N)C2)cc2nc(-c3cc4cccnc4n3CC3CC3)n(C)c12
Response line: 1 to 5 µM

Prompt line: Request the reported IC50 associated with COc1cc(C(=O)N2C[C@H]3CCC2[C@H]3N)cc2nc(-c3cc4ccc(/C=C/c5ccccc5)cc4n3CC3CC3)n(C)c12
Response line: < 1 µM

Prompt line: Request the reported IC50 associated with COc1cc(C(=O)N2C[C@H](N)CC[C@H]2CO)cc2nc(-c3cc4cccnc4n3CC3CC3)n(C)c12 (single isomer, unassigned) [Compound I-226]
Response line: > 10 µM

Prompt line: Request the reported IC50 associated with COc1cc(C(=O)N2C[C@H]3CC[C@@H]2[C@@H]3N)cc2nc(-c3cc4ccc(N(C)CCC5CC5)cc4n3CC3CC3)n(C)c12
Response line: < 1 µM

Prompt line: Request the reported IC50 associated with COc1cc(C(=O)N2C[C@H]3CC[C@@H]2[C@@H](N)C3)cc2nc(-c3cc4cccnc4n3CC3CC3)n(C)c12
Response line: > 10 µM

Prompt line: Request the reported IC50 associated with CCn1c(-c2nc3cc(C(=O)N4CCC[C@@H](N)C4)cc(OC)c3n2C[C@H]2C[C@@](C)(OC)C2)cc2cccnc21
Response line: 1 to 5 µM

Prompt line: Request the reported IC50 associated with COc1cc(C(=O)N2C[C@H]3CC[C@@H]2[C@@H]3N)cc2nc(-c3cc4cccnc4n3CC3CC3)n(CC3CCOC3)c12 (stereo partly shown)
Response line: < 1 µM

Prompt line: Request the reported IC50 associated with Cn1c(-c2cc3ccccc3n2CC2CC2)nc2cc(C(=O)N3CC[C@@H]4CCN[C@@H]4C3)ccc21
Response line: > 10 µM

Prompt line: Request the reported IC50 associated with COCCn1c(-c2cc3cccnc3n2CC2CC2)nc2cc(C(=O)N3CCC[C@@H](N)C3)cc(OC)c21
Response line: 1 to 5 µM

====

Assign IC50 to each entry below.
Biological target: mPAD4 (Mus musculus)
Sequence (Q9Z183 whole entry): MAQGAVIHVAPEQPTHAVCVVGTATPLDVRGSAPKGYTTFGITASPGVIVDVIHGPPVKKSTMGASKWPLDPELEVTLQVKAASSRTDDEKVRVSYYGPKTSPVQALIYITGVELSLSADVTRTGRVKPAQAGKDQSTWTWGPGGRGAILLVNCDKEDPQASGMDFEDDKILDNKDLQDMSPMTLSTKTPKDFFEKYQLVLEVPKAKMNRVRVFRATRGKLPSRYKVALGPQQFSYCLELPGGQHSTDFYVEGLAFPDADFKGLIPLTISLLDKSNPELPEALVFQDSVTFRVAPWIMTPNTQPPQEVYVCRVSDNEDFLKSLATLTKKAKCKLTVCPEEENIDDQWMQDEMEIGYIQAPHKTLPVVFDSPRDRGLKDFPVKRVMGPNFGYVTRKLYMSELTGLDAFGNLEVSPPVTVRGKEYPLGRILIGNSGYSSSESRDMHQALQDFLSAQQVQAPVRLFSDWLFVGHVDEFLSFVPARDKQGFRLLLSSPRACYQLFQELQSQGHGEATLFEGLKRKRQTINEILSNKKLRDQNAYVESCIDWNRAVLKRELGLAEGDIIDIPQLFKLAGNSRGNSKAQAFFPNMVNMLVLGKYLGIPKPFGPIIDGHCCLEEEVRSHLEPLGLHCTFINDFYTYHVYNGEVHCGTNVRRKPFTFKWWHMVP
Experiment: mPAD4 RFMS PAD4 inhibition assay;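 further: grade E means pIC50 at most 4 and F means pIC50 4.0 to 5.0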
Format: biochemical
Conditions: mPAD4, RFMS readout; pIC50=−log(IC50); read-out: mPAD4 RFMS pIC50 (converted)
Counter-ions that a name gives are not always drawn.

Prompt line: Request the reported IC50 associated with COc1cc(C(=O)N2C[C@@H](N)CC[C@H]2CO)cc2nc(-c3cc4cccnc4n3CC3CC3)n(C)c12 (single isomer, unassigned) [Compound I-229]
Response line: 1000 to 10000 nM

Prompt line: Request the reported IC50 associated with CCn1c(-c2nc3cc(C(=O)N4CCC[C@@H](N)C4)cc(OC)c3n2CC2CCOCC2)cc2cccnc21 [Compound I-174]
Response line: 1000 to 10000 nM

Prompt line: Request the reported IC50 associated with COc1cc2c(cc1C(=O)N1CCC[C@@H](N)C1)nc(-c1cc3cccnc3n1CC1CC1)n2C [Compound I-68, hydrochloride]
Response line: 10000 to 100000 nM

Prompt line: Request the reported IC50 associated with COc1ccc2cc(-c3nc4cc(C(=O)N5CCC[C@@H](N)C5)cc(OC)c4n3CC(F)F)n(CC3CC3)c2n1 [Compound I-94]
Response line: < 1000 nM

Prompt line: Request the reported IC50 associated with CCn1c(-c2nc3cc(C(=O)N4CCC[C@@H](N)C4)cc(OC)c3n2C)cc2ccc(C)nc21 [Compound I-161]
Response line: < 1000 nM

Prompt line: Request the reported IC50 associated with CCn1c(-c2nc3cc(C(=O)N4CCC[C@@H](N)C4)cc(OC)c3n2CC2CC(F)(F)C2)cc2cccnc21 [Compound I-180]
Response line: < 1000 nM

Prompt line: Request the reported IC50 associated with COc1cc(C(=O)N2C[C@H](N)CC[C@H]2C)cc2nc(-c3cc4cccnc4n3CC3CC3)n(C)c12 [Compound I-88]
Response line: 1000 to 10000 nM

====

Target: hPAD4 (Homo sapiens)
Test: hPAD4 RFMS (RapidFire mass spectrometry) PAD4 inhibition assay
Type: biochemical
Details: hPAD4 enzyme, RFMS readout; pIC50=−log(IC50); read-out: hPAD4 RFMS pIC50 (converted)
Assign IC50 to each entry below.

Prompt line: Request the reported IC50 associated with CCn1c(-c2nc3cc(C(=O)N4CCC[C@@H](N)C4)cc(OC)c3n2C[C@H]2C[C@@](C)(OC)C2)cc2ccc(OC)nc21
Response line: < 1 µM

Prompt line: Request the reported IC50 associated with COc1ccc2cc(-c3nc4cc(C(=O)N5C[C@H]6CC[C@@H]5[C@@H]6N)ccc4n3C)n(CC3CC3)c2n1
Response line: < 1 µM

Prompt line: Request the reported IC50 associated with Cn1c(-c2cc3cccnc3n2CC2CC(C)(O)C2)nc2cc(C(=O)N3CCC[C@@H](N)C3)ccc21 (stereo partly shown)
Response line: 1 to 10 µM

Prompt line: Request the reported IC50 associated with CCn1c(-c2nc3cc(C(=O)N4C[C@@H]5CC[C@H]4[C@H]5N)cc(OC)c3n2C)cc2ccc(OC)nc21
Response line: 1 to 10 µM

Prompt line: Request the reported IC50 associated with Cn1c(-c2cc3cccnc3n2CC2CC2)nc2cc(C(=O)N3CCCC4(CCCN4)C3)ccc21 (stereo not shown)
Response line: 10 to 100 µM

Prompt line: Request the reported IC50 associated with CCn1c(-c2nc3cc(C(=O)N4C[C@H]5CC[C@@H]4[C@@H]5N)ccc3n2C)cc2cccnc21
Response line: 1 to 10 µM

Prompt line: Request the reported IC50 associated with COc1cc(C(=O)N2C[C@H]3CC[C@@H]2[C@@H](N)C3)cc2nc(-c3cc4cccnc4n3CC3CC3)n(C)c12
Response line: 10 to 100 µM
